Test system: RIVA
test_details: growth inhibition by drug plus 177Lu-lilotomab satetraxetan (1 - RLU/untreated control) (fraction); higher = stronger inhibition
cond: 10 nM; time (day): 6; 177Lu-lilotomab satetraxetan 0.5 ug/ml
Counter-ions that a name gives are not always drawn.
# growth inhibition by drug plus 177Lu-lilotomab satetraxetan per entry
Write the value as a bare number.

The examples below pair each entry with its known result.
# compound, reported_result
measured = [
    ("O=C1c2ccccc2-c2nc3nonc3nc21", 0.542),
    ("CCCC(CCC)C(=O)O [Valproic acid sodium salt (Sodium valproate)]", 0.583),
    ("Cc1ccc(S(=O)(=O)C=CC#N)cc1", 0.534),
    ("N#CC[C@H](C1CCCC1)n1cc(-c2ncnc3[nH]ccc23)cn1", 0.488),
    ("CCOC(=O)[C@@H](C)Oc1cccc2c(=O)n(CC(=O)Nc3ccc4c(c3)OCCO4)ccc12", 0.536),
]

For the next question, use this compound.
API: value(readout=growth inhibition by drug plus 177Lu-lilotomab satetraxetan, system=RIVA) for record CCN(CC)C(=S)SSC(=S)N(CC)CC [Disulfiram (Antabuse)] 0.549

###

System: U-2932
test_details: growth inhibition by drug alone (1 - RLU/untreated control) (fraction); higher = stronger inhibition
cond: 1000 nM; time (day): 6; 177Lu-lilotomab satetraxetan 0 ug/ml
metric_name: growth inhibition by drug alone
Note: the reply should be a number with no unit written.

Below, each entry is followed by its recorded growth inhibition by drug alone result.
# molecule, system_tested, growth inhibition by drug alone
records = [
    ("Cc1cccc(-c2nn3c(c2-c2ccnc4ccc(C(N)=O)cc24)CCC3)n1", "U-2932", -0.0441),
    ("Cc1[nH]c2ccccc2c1CCNCc1ccc(/C=C/C(=O)NO)cc1", "U-2932", 0.983),
    ("O=C(Nc1cccc(Cl)c1)Nc1ncc(CCNc2ncnc3ccsc23)s1", "U-2932", 0.355),
]

Query molecule follows.
Item under review: CS(=O)(=O)CCNCc1ccc(-c2ccc3ncnc(Nc4ccc(OCc5cccc(F)c5)c(Cl)c4)c3c2)o1 [Lapatinib Ditosylate (Tykerb)] . Reported growth inhibition by drug alone? -0.169

###

Catalogue of compounds with associated growth inhibition by drug plus 177Lu-lilotomab satetraxetan
Tested on: U-2932
test_details: growth inhibition by drug plus 177Lu-lilotomab satetraxetan (1 - RLU/untreated control) (fraction); higher = stronger inhibition
cond: 10 nM; time (day): 3; 177Lu-lilotomab satetraxetan 1 ug/ml
// return just the number, without any unit appended

# compound, system_tested, reported_result
data = [
    ("Cc1ccc(NC(=O)c2cccc(C(C)(C)C#N)c2)cc1Nc1ccc2ncn(C)c(=O)c2c1", "U-2932", 0.00759),
]

Please look up its growth inhibition by drug plus 177Lu-lilotomab satetraxetan: CC(=O)Nc1nc(C)c(-c2ccc(Cl)c(S(=O)(=O)NCCO)c2)s1 -0.0326

Name the recorded growth inhibition by drug plus 177Lu-lilotomab satetraxetan for CC[C@]1(O)C[C@@H]2CN(CCc3c([nH]c4ccccc34)[C@@](C(=O)OC)(c3cc4c(cc3OC)N(C)[C@H]3[C@@](O)(C(=O)OC)[C@H](OC(C)=O)[C@]5(CC)C=CCN6CC[C@]43[C@@H]65)C2)C1 . 0.0509

Fill blank: measured growth inhibition by drug plus 177Lu-lilotomab satetraxetan of the compound CN(C)CCOc1ccc(-c2nc(-c3ccncc3)c(-c3ccc4c(c3)CC/C4=N\O)[nH]2)cc1 is ____. -0.0652

Param item = CS(=O)(=O)CCNCc1ccc(-c2ccc3ncnc(Nc4ccc(OCc5cccc(F)c5)c(Cl)c4)c3c2)o1 [Lapatinib Ditosylate (Tykerb)] ; retrieve measured growth inhibition by drug plus 177Lu-lilotomab satetraxetan. 0.108

Could you share which growth inhibition by drug plus 177Lu-lilotomab satetraxetan value was measured for CCN(CC)CCNC(=O)c1c(C)[nH]c(/C=C2\C(=O)Nc3ccc(F)cc32)c1C [Sunitinib Malate (Sutent)] ? -0.0903

What value of growth inhibition by drug plus 177Lu-lilotomab satetraxetan has been reported for the following compound? O=C(Nc1cccnc1)N1CCC(Cc2cccc(Oc3ccc(C(F)(F)F)cn3)c2)CC1 0.152
